biological target: GlyT2 F515W mutant (Homo sapiens, UniProt Q9Y345, F515W); settings: read-out: Glycine EC50; F515W (TM7)
Sequence (Q9Y345 whole entry F515W): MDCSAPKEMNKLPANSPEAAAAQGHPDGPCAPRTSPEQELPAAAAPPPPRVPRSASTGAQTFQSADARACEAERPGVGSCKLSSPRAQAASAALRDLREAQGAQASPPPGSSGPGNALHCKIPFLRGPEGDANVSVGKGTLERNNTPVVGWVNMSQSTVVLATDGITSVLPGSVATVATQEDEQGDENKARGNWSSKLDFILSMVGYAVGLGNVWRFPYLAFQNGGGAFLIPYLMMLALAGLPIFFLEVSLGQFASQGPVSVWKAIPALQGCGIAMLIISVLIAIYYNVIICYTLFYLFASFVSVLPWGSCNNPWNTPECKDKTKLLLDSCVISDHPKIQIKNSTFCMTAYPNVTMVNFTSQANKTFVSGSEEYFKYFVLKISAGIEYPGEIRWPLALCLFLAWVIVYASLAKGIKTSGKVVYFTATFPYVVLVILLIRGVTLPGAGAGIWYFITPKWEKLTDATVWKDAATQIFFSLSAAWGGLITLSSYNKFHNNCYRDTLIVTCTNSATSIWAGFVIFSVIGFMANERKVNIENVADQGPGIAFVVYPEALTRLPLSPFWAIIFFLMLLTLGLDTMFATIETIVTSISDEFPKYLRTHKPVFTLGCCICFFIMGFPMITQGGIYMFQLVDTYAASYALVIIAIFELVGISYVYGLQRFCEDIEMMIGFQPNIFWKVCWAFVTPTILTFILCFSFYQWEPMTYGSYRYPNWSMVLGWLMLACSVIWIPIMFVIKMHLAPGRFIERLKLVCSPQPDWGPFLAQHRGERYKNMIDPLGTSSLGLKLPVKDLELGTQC
MEASURED ATTRIBUTE: pEC50
Give bare numbers, as −log10 of the molar value.

Task: Check the records and state pEC50 for "NCC(=O)O"
Result: 5.12

---

target: GlyT2 Y430F mutant (Homo sapiens, UniProt Q9Y345, Y430F); conditions: read-out: Glycine EC50; Y430F (TM5)
Sequence (Q9Y345 whole entry Y430F): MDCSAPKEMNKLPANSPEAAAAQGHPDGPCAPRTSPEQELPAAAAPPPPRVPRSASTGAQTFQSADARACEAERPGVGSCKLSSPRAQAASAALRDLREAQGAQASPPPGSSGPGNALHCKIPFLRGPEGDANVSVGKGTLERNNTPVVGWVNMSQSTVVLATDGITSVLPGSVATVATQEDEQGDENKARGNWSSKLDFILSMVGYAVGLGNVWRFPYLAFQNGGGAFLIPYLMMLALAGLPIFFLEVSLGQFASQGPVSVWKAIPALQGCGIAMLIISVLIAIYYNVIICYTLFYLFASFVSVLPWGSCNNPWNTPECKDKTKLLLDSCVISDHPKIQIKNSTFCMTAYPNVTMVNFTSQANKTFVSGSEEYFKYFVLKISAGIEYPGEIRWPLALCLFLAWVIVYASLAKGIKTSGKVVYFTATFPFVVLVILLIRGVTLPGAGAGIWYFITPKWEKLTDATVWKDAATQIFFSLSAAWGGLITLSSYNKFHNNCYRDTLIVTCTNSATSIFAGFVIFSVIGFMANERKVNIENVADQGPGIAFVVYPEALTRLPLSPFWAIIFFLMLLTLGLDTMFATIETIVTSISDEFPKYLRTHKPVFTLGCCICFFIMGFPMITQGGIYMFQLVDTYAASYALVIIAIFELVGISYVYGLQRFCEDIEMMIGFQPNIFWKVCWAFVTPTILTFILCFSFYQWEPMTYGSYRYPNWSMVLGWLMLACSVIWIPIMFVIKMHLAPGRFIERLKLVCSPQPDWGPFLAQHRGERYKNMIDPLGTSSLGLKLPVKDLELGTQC
MEASURED ATTRIBUTE: EC50
Write down the value, and be sure its unit follows.

Task: Given the molecule "NCC(=O)O" , write its reported EC50.
Result: 12 µM

---

molecular target: GlyT2 Y430L mutant (Homo sapiens, UniProt Q9Y345, Y430L); details: read-out: Glycine EC50; Y430L (TM5)
Sequence (Q9Y345 whole entry Y430L): as the sequence (Q9Y345 whole entry Y430F) above, with F430L counted along it
MEASURED ATTRIBUTE: EC50 (µM)
Numbers only, in µM.

Task: Supply measured EC50 of "NCC(=O)O" in your reply.
Result: 19

---

target: GlyT2 F515V mutant (Homo sapiens, UniProt Q9Y345, F515V); conditions: read-out: Glycine EC50; F515V (TM7)
Sequence (Q9Y345 whole entry F515V): as the sequence (Q9Y345 whole entry F515W) above, with W515V counted along it
MEASURED ATTRIBUTE: EC50 (µM)
Numbers only, in µM.

Task: Provide measured EC50 on GlyT2 F515V mutant (Homo sapiens, UniProt Q9Y345, F515V) for "NCC(=O)O" please.
Result: 7.8

---

target: GlyT2 Y430F mutant (Homo sapiens, UniProt Q9Y345, Y430F); experiment: Inhibitor concentration–responses on glycine transport currents, two-electrode voltage clamp; conditions: Y430F GlyT2 in Xenopus laevis oocytes
MEASURED ATTRIBUTE: pIC50
Numbers only, as −log10 of the molar value.

Guide cases for pIC50, answers given:
| QUERY SMILES | EXPERIMENTAL SYSTEM | pIC50 |
| --- | --- | --- |
| CCCCCCCC/C=C\CCCCCCCC(=O)O[C@H](CC(=O)[O-])C[N+](C)(C)C | GlyT2 Y430F mutant (Homo sapiens, UniProt Q9Y345, Y430F) | 6.72 |
| CCCCCCCC/C=C\CCCCCCCC(=O)N[C@@H](CC(C)C)C(=O)O | GlyT2 Y430F mutant (Homo sapiens, UniProt Q9Y345, Y430F) | 6.69 |
| CCCCCCCC/C=C\CCCCCCCC(=O)N[C@@H](Cc1c[nH]c2ccccc12)C(=O)O | GlyT2 Y430F mutant (Homo sapiens, UniProt Q9Y345, Y430F) | 6.90 |

Okay, now this compound:
Task: // Input: "CCCCCCCC/C=C\CCCCCCCC(=O)N[C@@H](CCCCN)C(=O)O" . Output its pIC50 only.
Result: 6.91

---

target: UniProt:Q9Y345; experiment: Inhibitor concentration–responses on glycine transport currents, two-electrode voltage clamp (control and MβCD-treated oocytes); assay type: cell-based; set-up: expressed in transfected cells; host or cells: Xenopus laevis oocytes injected with in vitro transcribed RNA (pOTV vector); conditions: WT GlyT2 in Xenopus laevis oocytes; glycine EC50 co-applied; Table S10
MEASURED ATTRIBUTE: IC50 (nM)
Numbers only, in nM.

Answered cases to consult:
| QUERY SMILES | ASSAY RESULT |
| --- | --- |
| CCCCCCCC/C=C\CCCCCCCC(=O)N[C@@H](CCCCN)C(=O)O | 215 |
| CCCCCCCC/C=C\CCCCCCCC(=O)N[C@@H](Cc1c[nH]c2ccccc12)C(=O)O | 103 |
| CCCCCCCC/C=C\CCCCCCCC(=O)O[C@H](CC(=O)[O-])C[N+](C)(C)C | 520 |

Task: Give IC50 for "CCCCCCCC/C=C\CCCCCCCC(=O)N[C@@H](CC(C)C)C(=O)O"
Result: 262
